B1: TPR t1 (parent)
chain: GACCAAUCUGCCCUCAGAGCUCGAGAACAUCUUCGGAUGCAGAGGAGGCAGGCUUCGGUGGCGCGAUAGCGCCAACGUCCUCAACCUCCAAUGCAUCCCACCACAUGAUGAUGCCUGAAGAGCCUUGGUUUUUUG

Variants of: B1
testDescription: polymerase ribozyme fitness, log enrichment relative to wild type (log ratio); higher = more active; in vitro selection for triplet polymerase activity
What polymerase ribozyme fitness (log ratio) was measured for each of the following?
// response body must contain only the number

# input variant: C56G G135U ; wanted: its polymerase ribozyme fitness (log ratio)
-1.35

# input variant: A2C C3G G71C U129A ; wanted: its polymerase ribozyme fitness (log ratio)
-4.77

# input variant: G52C C73G C82A ; wanted: its polymerase ribozyme fitness (log ratio)
-1.97
